# target: BaF3 cells expressing Tel-FGFR-4 and luciferase (Homo sapiens, UniProt P22455)
# Construct: Luciferase is co-expressed as a viability reporter and is not part of the key; P41212 (Transcription factor ETV6)
# Sequence (P22455 467-755 limits assumed): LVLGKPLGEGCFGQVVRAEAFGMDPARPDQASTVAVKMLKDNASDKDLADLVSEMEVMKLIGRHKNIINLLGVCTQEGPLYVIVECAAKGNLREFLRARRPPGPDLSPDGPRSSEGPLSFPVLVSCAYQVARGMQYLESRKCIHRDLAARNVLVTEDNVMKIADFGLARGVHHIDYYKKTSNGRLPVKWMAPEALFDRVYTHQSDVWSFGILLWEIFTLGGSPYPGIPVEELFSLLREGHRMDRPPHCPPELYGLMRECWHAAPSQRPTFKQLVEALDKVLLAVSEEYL
# assay info: BaF3 cellular growth inhibition assay, Tel-FGFR-4 and luciferase (Bright-Glo)
# measurement parameters: BaF3 Tel-FGFR-4 cells, 2 days incubation, 50% growth inhibition vs DMSO
# Protocol: Compounds' inhibitory activities against FGFR-4 or FGFR-1 were measured in BaF3 cells expressing Tel-FGFR-4 and luciferase or Tel-FGFR-1 and luciferase, whose growth was dependent on FGFR-4 or FGFR-1 kinase but independent of IL-3. The cells were plated in 384-well plates in RPMI1640 with 10% FBS. Compounds were added as 11-point dilutions. Cell viability was determined by Bright-Glo luciferase assay (Promega) after cells were incubated with compounds for 2 days. […]
quantity name: IC50

| compound | quantity name | recorded measurement |
| --- | --- | --- |
| C=CC(=O)Nc1cc(N2CCN(CC)CC2)ccc1Nc1cc2cc(C(O)c3c(F)c(OC)cc(OC)c3F)oc2cn1 (racemic) [Example 5] | IC50 | < 100 nM |
| C=CC(=O)N[C@H]1CCOC[C@H]1Nc1ncc2oc(C(O)c3c(F)c(OC)cc(OC)c3F)cc2n1 (stereo partly drawn) | IC50 | 1000 to 10000 nM |
| C=CC(=O)N[C@H]1CCOC[C@H]1Nc1cc2cc(C(=O)c3c(F)c(OC)cc(OC)c3F)oc2cn1 | IC50 | 100 to 1000 nM |
| C=CC(=O)Nc1cccc(Cl)c1Nc1cc2cc(C(O)c3c(F)c(OC)cc(OC)c3F)oc2cn1 (racemic) | IC50 | < 100 nM |

Form: compound = `C=CC(=O)Nc1cc(N2CCN(CC)CC2)ccc1Nc1cc2cc(C(F)(F)c3c(F)c(OC)cc(OC)c3F)oc2cn1` ; IC50 = 100 to 1000 nM

Form: compound = C=CC(=O)Nc1cccc(C(F)(F)F)c1Nc1cc2cc(C(O)c3c(F)c(OC)cc(OC)c3F)oc2cn1 (racemic) ; IC50 = 100 to 1000 nM

Form: compound = C=CC(=O)Nc1cc(N2CCN(CC)CC2)ccc1Nc1ncc2oc(C(O)c3c(F)c(OC)cc(OC)c3F)cc2n1 (racemic) ; IC50 = < 100 nM

Form: compound = C=CC(=O)Nc1cccc(C)c1Nc1cc2cc(C(O)c3c(F)c(OC)cc(OC)c3F)sc2cn1 (racemic) ; IC50 = < 100 nM

Form: compound = C=CC(=O)Nc1cc(N2CCN(CC)CC2)ccc1Nc1cc2cc(C(C)(O)c3c(F)c(OC)cc(OC)c3F)oc2cn1 (racemic) ; IC50 = 100 to 1000 nM

====

# target: BaF3 cells expressing Tel-FGFR-1 and luciferase (Homo sapiens, UniProt P11362)
# Construct: Luciferase is co-expressed as a viability reporter and is not part of the key; P41212 (Transcription factor ETV6)
# Sequence (P11362 478-767 limits assumed): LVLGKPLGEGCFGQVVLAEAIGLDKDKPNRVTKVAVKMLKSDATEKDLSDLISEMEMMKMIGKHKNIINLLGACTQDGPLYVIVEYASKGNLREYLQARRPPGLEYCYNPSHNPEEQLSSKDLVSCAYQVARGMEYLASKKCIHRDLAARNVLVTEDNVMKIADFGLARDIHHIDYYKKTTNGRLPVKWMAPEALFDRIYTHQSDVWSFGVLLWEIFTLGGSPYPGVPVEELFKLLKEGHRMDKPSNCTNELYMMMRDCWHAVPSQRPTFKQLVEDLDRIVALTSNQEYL
# assay info: BaF3 cellular growth inhibition assay, Tel-FGFR-1 and luciferase (Bright-Glo)
# Type: cell-based
# measurement parameters: BaF3 Tel-FGFR-1 cells, 2 days incubation, 50% growth inhibition vs DMSO; numeric bounds
quantity name: IC50

Form: compound = `C=CC(=O)Nc1cccc(C)c1Nc1ncc2oc(C(=O)c3c(F)c(OC)cc(OC)c3F)cc2n1` ; IC50 = > 6.65 µM

Form: compound = `C=CC(=O)Nc1cc(N2CCN(CC)CC2)ccc1Nc1cc2cc(C(=O)c3c(F)c(OC)cc(OC)c3F)[nH]c2cn1` ; IC50 = > 3.3 µM

Form: compound = C=CC(=O)Nc1cccc(C(F)(F)F)c1Nc1cc2cc(C(O)c3c(F)c(OC)cc(OC)c3F)oc2cn1 (racemic) ; IC50 = > 10 µM

Form: compound = `C=CC(=O)Nc1cc(N2CCN(CC)CC2)ccc1Nc1cc2cc(C(=O)Nc3c(F)c(OC)cc(OC)c3F)oc2cn1` ; IC50 = > 3.3 µM

Form: compound = `C=CC(=O)N[C@H]1CCOC[C@H]1Nc1cc2cc(-c3c(Cl)c(OC)cc(OC)c3Cl)oc2cn1` ; IC50 = > 10 µM

Form: compound = `C=CC(=O)Nc1cccc(C)c1Nc1cc2cc(C(=O)c3c(F)c(OC)cc(OC)c3F)sc2cn1` ; IC50 = > 6.65 µM

Form: compound = C=CC(=O)Nc1cccc(Cl)c1Nc1cc2cc(C(O)c3c(F)c(OC)cc(OC)c3F)oc2cn1 (racemic) ; IC50 = > 10 µM

Form: compound = `C=CC(=O)Nc1cccc(Cl)c1Nc1cc2cc(C(=O)c3c(F)c(OC)cc(OC)c3F)oc2cn1` ; IC50 = > 5.1 µM

Form: compound = `C=CC(=O)N[C@H]1CCOC[C@H]1Nc1cc2cc(C(=O)c3c(F)c(OC)cc(OC)c3F)oc2cn1` ; IC50 = > 10 µM
